# experiment: Toxicity liver stage against HepG2, at 10uM
# Type: cell-based
# Design: test concentration 10 uM, cell line HepG2-A16-CD81EGFP
# condition context: human, HepG2-A16-CD81EGFP cells; read-out: INHIBITION
quantity measured: cytotoxicity at 10 µM (%)
Respond numerically; units are % and should not be typed.

cytotoxicity at 10 µM reported for this compound `COCc1cccc(CNC(=O)CNc2ccccc2C(C)=O)c1` : 0.529

cytotoxicity at 10 µM reported for this compound O=C(NC1CC1)C1CCCN(c2cc(-n3cncn3)ncn2)C1 (stereo unspecified) : 10.1

cytotoxicity at 10 µM reported for this compound `CCc1nc(NC(=O)NCCc2cscn2)nn1C` : 2.31

cytotoxicity at 10 µM reported for this compound COc1ccccc1CNC(=O)COc1ccc2c(c1)OCC2O (stereo unspecified) : -3.75

cytotoxicity at 10 µM reported for this compound `Cc1cccnc1NC(=O)NCc1ccc(N2CCNC(=O)C2)cc1` : -8.85

cytotoxicity at 10 µM reported for this compound Cc1ccc(C2CCCN2S(=O)(=O)N(C)Cc2cnccn2)o1 (stereo unspecified) : 0.78

cytotoxicity at 10 µM reported for this compound NC(=O)C1CCN(C(=O)c2ccn(-c3cccc(Cl)c3)n2)C1 (stereo unspecified) : -0.433

cytotoxicity at 10 µM reported for this compound Cc1cc(C)n(-c2ccc(C(=O)NCC(CO)Cc3cccs3)cc2)n1 (stereo unspecified) : 6.64

cytotoxicity at 10 µM reported for this compound `CNC(=O)c1cccc(CN2CCN(C3=NCC(C)(C)S3)CC2)c1` : -2.37

cytotoxicity at 10 µM reported for this compound `COc1cc(N2C[C@H]3CCC[C@@H](CN(C)C)[C@H]3C2)ncn1` : -78.3

cytotoxicity at 10 µM reported for this compound Cc1c[nH]c(CN2CCC3(CCCN(Cc4ccc(F)c(F)c4)C3)C2)n1 (stereo unspecified) : -7.22
